# ASSAY NOTES: Inhibition of rat opioid receptor
pIC50: −log10 of the molar value.
READOUT NAME: pIC50

Enquiry: Sample `Cc1ccc(NC(=O)C[C@H](CCC(=O)O)c2noc([C@H]3C[C@@H](CC(C)(C)C)C3)c2C2CC2)c(Cl)c1` — what was its pIC50?
Return: < 5.00

----------
# ASSAY NOTES: Volume of distribution at steady state in Beagle dog at 1 mg/kg, iv administered as single dose and measured after 24 hrs
# Format: ADME, organism-based, Canis lupus familiaris
# TEST SETTINGS: in vivo, read-out: Vdss
READOUT NAME: Vd (L/kg)
Answer with a number only, understood to be in L/kg.

Enquiry: Sample `Cc1ccc(NC(=O)C[C@H](CCC(=O)O)c2noc([C@H]3C[C@@H](CC(C)(C)C)C3)c2C2CC2)c(Cl)c1` — what was its Vd?
Return: 0.19
